Molecular target: Bcl-2 protein (histag-Bcl-2, UniProtKB P10415) (Homo sapiens, UniProt P10415)
Construct: His tag
Sequence (P10415 whole entry): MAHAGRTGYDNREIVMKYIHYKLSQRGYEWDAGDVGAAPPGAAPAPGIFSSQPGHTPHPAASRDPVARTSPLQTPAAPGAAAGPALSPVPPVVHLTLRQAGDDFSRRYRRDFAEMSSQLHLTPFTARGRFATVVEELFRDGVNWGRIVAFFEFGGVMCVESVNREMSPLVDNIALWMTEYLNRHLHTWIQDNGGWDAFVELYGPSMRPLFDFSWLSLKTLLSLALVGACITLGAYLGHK
Assay: Inhibition of Bcl-2 by the fluorescence polarisation technique
Format: binding
Details: fluorescence polarisation, 2 hours incubation; read-out: IC50 (nM) Bcl-2 FP
Counter-ions that a name gives are not always drawn.
This listing pairs compounds with measured IC50.
test_readout: IC50 (nM)

compound=CCN(C(=O)c1cc(-c2cc3c(cc2C(=O)N2CCc4ccccc4C2)OCO3)n2c1CNCC2)c1ccc(O)cc1 measured_result=243
compound=C[C@@H]1Cc2ccccc2CN1C(=O)c1cc2c(cc1-c1cc(C(=O)N(c3ccc(O)cc3)c3cnc4ccnn4c3)c3ccccn13)OCO2 measured_result=4
compound="Cn1ncc2cc(N(C(=O)c3cc(-c4cc5c(cc4C(=O)N4Cc6ccccc6C[C@H]4CCN4CCOCC4)OCO5)n4c3CCCC4)c3ccc(O)cc3)ccc21 [Example 14, hydrochloride]" measured_result=3.7
compound=C[C@@H]1Cc2ccccc2CN1C(=O)c1ccc(F)cc1-c1cc(C(=O)N(c2ccc(O)cc2)c2cnc3c(ccn3C)c2)c2n1CCCC2 measured_result=5.3
compound="Cc1cn2ccc(N(C(=O)c3cc(-c4cc5c(cc4C(=O)N4Cc6ccccc6C[C@H]4C)OCO5)n4ccccc34)c3ccc(O)cc3)cc2n1 [Example 53, hydrochloride]" measured_result=5.4
compound="C[C@@H]1Cc2ccccc2CN1C(=O)c1cc2c(cc1-c1cc(C(=O)N(c3ccc(O)cc3)c3ccc(OCCN4CCOCC4)c(F)c3)c3ccccn13)OCO2 [Example 17, hydrochloride]" measured_result=3.4
compound="Cc1ccc(C(=O)N2Cc3ccccc3C[C@H]2CCN2CCOCC2)c(-c2cc(C(=O)N(c3ccccc3)c3ccc(O)cc3)c3n2CCCC3)c1 [Example 19, hydrochloride]" measured_result=8
compound=C[C@@H]1Cc2ccccc2CN1C(=O)c1ccc(F)cc1-c1cc(C(=O)N(c2ccncc2)c2ccc(O)cc2)c2ccccn12 measured_result=5.6
compound="Cc1ccc(N(C(=O)c2cc(-c3cc4c(cc3C(=O)N3Cc5ccccc5C[C@H]3C)OCO4)n3ccccc23)c2ccc(O)cc2)cn1 [Example 54, hydrochloride]" measured_result=6.6
compound=C[C@@H]1Cc2ccccc2CN1C(=O)c1ccc(F)cc1-c1cc(C(=O)N(c2ccc(O)cc2)c2cnn(C)c2)c2n1CCCC2 measured_result=7
compound="C[C@@H]1Cc2ccccc2CN1C(=O)c1cc2c(cc1-c1cc(C(=O)N(c3ccncc3)c3ccc(O)cc3)c3ccccn13)OCO2 [Example 21, hydrochloride]" measured_result=4.6
compound=C[C@@H]1Cc2ccccc2CN1C(=O)c1ccc(Cl)cc1-c1cc(C(=O)N(c2ccc(O)cc2)c2ccc3c(ccn3C)c2)c2n1CCN(C)C2 measured_result=46.4

----------
Target: Bcl-2 protein (histag-Bcl-2, UniProtKB P10415) (Homo sapiens, UniProt P10415)
Construct: His tag
Experiment: Inhibition of Bcl-2 by the fluorescence polarisation technique
Format: binding
Details: fluorescence polarisation, 2 hours incubation; read-out: IC50 (nM) Bcl-2 FP
Structures can show the parent of a compound that is named as a salt.
Output 1.0 for records whose IC50 is lower than 5 nM, 0.0 for records at or above 5 nM.

molecule="C[C@@H]1Cc2ccccc2CN1C(=O)c1ccc(Cl)cc1-c1cc(C(=O)N(c2ccc(O)cc2)c2ccc3c(ccn3CCN3CCOCC3)c2)c2ccccn12 [Example 8, hydrochloride]" tested_system="Bcl-2 protein (histag-Bcl-2, UniProtKB P10415) (Homo sapiens, UniProt P10415)" label_value=0.0
molecule="C[C@@H]1Cc2ccccc2CN1C(=O)c1ccc(Cl)cc1-c1cc(C(=O)N(c2ccncc2)c2ccc(O)cc2)c2ccccn12 [Example 49, hydrochloride]" tested_system="Bcl-2 protein (histag-Bcl-2, UniProtKB P10415) (Homo sapiens, UniProt P10415)" label_value=1.0
molecule="C[C@@H]1Cc2ccccc2CN1C(=O)c1cc2c(cc1-c1cc(C(=O)N(c3ccc(O)cc3)c3cnc4c(ccn4C)c3)c3ccccn13)OCO2 [Example 33, hydrochloride]" tested_system="Bcl-2 protein (histag-Bcl-2, UniProtKB P10415) (Homo sapiens, UniProt P10415)" label_value=1.0
molecule="C[C@@H]1Cc2ccccc2CN1C(=O)c1cc2c(cc1-c1cc(C(=O)N(c3ccc(O)cc3)c3ccc4c(cnn4C)c3)c3n1CCNC3)OCO2 [Example 11, hydrochloride]" tested_system="Bcl-2 protein (histag-Bcl-2, UniProtKB P10415) (Homo sapiens, UniProt P10415)" label_value=0.0
molecule=C[C@@H]1Cc2ccccc2CN1C(=O)c1ccc(F)cc1-c1cc(C(=O)N(c2ccc(O)cc2)c2cnn(C)c2)c2ccccn12 tested_system="Bcl-2 protein (histag-Bcl-2, UniProtKB P10415) (Homo sapiens, UniProt P10415)" label_value=0.0
molecule="C[C@@H]1Cc2ccccc2CN1C(=O)c1cc2c(cc1-c1cc(C(=O)N(c3ccc(O)cc3)c3ccc4ncccc4c3)c3ccccn13)OCO2 [Example 31, hydrochloride]" tested_system="Bcl-2 protein (histag-Bcl-2, UniProtKB P10415) (Homo sapiens, UniProt P10415)" label_value=0.0
molecule=COc1cc(N(C(=O)c2cc(-c3cc4c(cc3C(=O)N3Cc5ccccc5C[C@H]3C)OCO4)n3ccccc23)c2ccc(O)cc2)ccn1 tested_system="Bcl-2 protein (histag-Bcl-2, UniProtKB P10415) (Homo sapiens, UniProt P10415)" label_value=1.0
molecule=C[C@@H]1Cc2ccccc2CN1C(=O)c1cc2c(cc1-c1cc(C(=O)N(c3ccc(O)cc3)c3cnn(C)c3)c3n1CCCC3)OCCO2 tested_system="Bcl-2 protein (histag-Bcl-2, UniProtKB P10415) (Homo sapiens, UniProt P10415)" label_value=1.0
molecule="O=C(c1cc(-c2cc3c(cc2C(=O)N2Cc4ccccc4C[C@H]2CCN2CCOCC2)OCO3)n2cccnc12)N(c1ccccc1)c1ccc(O)cc1 [Example 22, hydrochloride]" tested_system="Bcl-2 protein (histag-Bcl-2, UniProtKB P10415) (Homo sapiens, UniProt P10415)" label_value=0.0
molecule="C[C@@H]1Cc2ccccc2CN1C(=O)c1cc2c(cc1-c1cc(C(=O)N(c3ccc(O)cc3)c3ccncc3F)c3ccccn13)OCO2 [Example 46, hydrochloride]" tested_system="Bcl-2 protein (histag-Bcl-2, UniProtKB P10415) (Homo sapiens, UniProt P10415)" label_value=1.0
molecule="Cn1ccc2cc(N(C(=O)c3cc(-c4cc5c(cc4C(=O)N4Cc6ccccc6C[C@H]4CCCN4CCOCC4)OCO5)n4c3CCCC4)c3ccc(O)cc3)cnc21 [Example 69, hydrochloride]" tested_system="Bcl-2 protein (histag-Bcl-2, UniProtKB P10415) (Homo sapiens, UniProt P10415)" label_value=1.0

----------
Molecular target: Bcl-2 protein (histag-Bcl-2, UniProtKB P10415) (Homo sapiens, UniProt P10415)
Construct: His tag
Assay: Inhibition of Bcl-2 by the fluorescence polarisation technique
Type: binding
Settings: fluorescence polarisation, 2 hours incubation; read-out: IC50 (nM) Bcl-2 FP
Counter-ions that a name gives are not always drawn.
test_readout: IC50 (nM)

compound=C[C@@H]1Cc2ccccc2CN1C(=O)c1ccc(F)cc1-c1cc(C(=O)N(c2ccncc2)c2ccc(O)cc2)c2n1CCCC2 test_readout=IC50 measured_result=7.8
compound=CCN(C(=O)c1cc(-c2cc3c(cc2C(=O)N2CCc4ccccc4C2)OCO3)n2c1CCCC2)c1ccc(O)cc1 test_readout=IC50 measured_result=67.7
compound="O=C(c1cc(-c2cc3c(cc2C(=O)N2Cc4ccccc4C[C@H]2CCN2CCCC(F)(F)C2)OCO3)n2c1CCCC2)N(c1ccccc1)c1ccc(O)cc1 [Example 41, hydrochloride]" test_readout=IC50 measured_result=41.5
compound="C[C@@H]1Cc2ccccc2CN1C(=O)c1cc2c(cc1-c1cc(C(=O)N(c3ccc(O)cc3)c3ccc4c(ccn4C)c3)c3n1CCN(C)C3)OCCO2 [Example 6, hydrochloride]" test_readout=IC50 measured_result=60.3

----------
Molecular target: Bcl-2 protein (histag-Bcl-2, UniProtKB P10415) (Homo sapiens, UniProt P10415)
Construct: His tag
Assay: Inhibition of Bcl-2 by the fluorescence polarisation technique
Assay type: binding
Conditions: fluorescence polarisation, 2 hours incubation; read-out: IC50 (nM) Bcl-2 FP
Structures can show the parent of a compound that is named as a salt.
This listing pairs molecules with measured IC50.
test_readout: IC50

molecule=C[C@@H]1Cc2ccccc2CN1C(=O)c1ccc(Cl)cc1-c1cc(C(=O)N(c2ccc(O)cc2)c2cnn(C)c2)c2n1CCCC2 tested_system="Bcl-2 protein (histag-Bcl-2, UniProtKB P10415) (Homo sapiens, UniProt P10415)" measured_result="4.3 nM"
molecule="C[C@@H]1Cc2ccccc2CN1C(=O)c1cc2c(cc1-c1cc(C(=O)N(c3ccc(O)cc3)c3ccc(CCN4CCCC(F)(F)C4)cc3)c3ccccn13)OCO2 [Example 35, hydrochloride]" tested_system="Bcl-2 protein (histag-Bcl-2, UniProtKB P10415) (Homo sapiens, UniProt P10415)" measured_result="15.1 nM"
molecule="C[C@@H]1Cc2ccccc2CN1C(=O)c1cc2c(cc1-c1cc(C(=O)N(c3ccc(O)cc3)c3cccnc3)c3ccccn13)OCO2 [Example 34, hydrochloride]" tested_system="Bcl-2 protein (histag-Bcl-2, UniProtKB P10415) (Homo sapiens, UniProt P10415)" measured_result="5.6 nM"
molecule="Cc1cnn2cc(N(C(=O)c3cc(-c4cc5c(cc4C(=O)N4Cc6ccccc6C[C@H]4C)OCO5)n4ccccc34)c3ccc(O)cc3)cnc12 [Example 86, hydrochloride]" tested_system="Bcl-2 protein (histag-Bcl-2, UniProtKB P10415) (Homo sapiens, UniProt P10415)" measured_result="5 nM"
